These measurements were taken from patent US20230416329A1.

# EXPERIMENTAL_SYSTEM: bovine trypsin (Bos taurus)
# Sequence (P00760 24-246): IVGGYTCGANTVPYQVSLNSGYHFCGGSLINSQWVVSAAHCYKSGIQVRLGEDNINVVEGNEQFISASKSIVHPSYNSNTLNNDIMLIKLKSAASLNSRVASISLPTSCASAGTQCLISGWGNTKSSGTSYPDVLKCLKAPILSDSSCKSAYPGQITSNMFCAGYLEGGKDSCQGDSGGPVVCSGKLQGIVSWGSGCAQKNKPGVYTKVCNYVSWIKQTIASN
# ASSAY: Trypsin inhibitory activity of peptides (BApNA hydrolysis, OD405; IC50, Ki, residual activity)
# Type: biochemical
# DETAILS: peptide 0.000098 μM
Bridge positions count the residues as written; N and C are the ends. Square brackets hold non-standard residues; d marks the D form. Peptide text beside a SMILES is read from it. Nle = CCCC[C@H](N)C(=O)O
EXPERIMENTAL_ENDPOINT: Residual trypsin activity (%)
Express it in %; write the number only.

{"COMPOUND": "CC[C@H](C)[C@@H]1NC(=O)[C@@H]2CCCN2C(=O)[C@@H]2CCCN2C(=O)[C@H]([C@@H](C)CC)NC(=O)[C@H](CO)NC(=O)[C@H](CCCCN)NC(=O)[C@H]([C@@H](C)O)NC(=O)[C@H](Cc2ccc(O)cc2)NC(=O)[C@H](CCCNC(=N)N)NC(=O)CNC(=O)[C@@H](N)CSSC[C@@H](C(=O)N[C@@H](Cc2ccccc2)C(=O)O)NC1=O [BT53] (H-CGRYTKSIPPICF-OH; disulfide 1-12; C-terminus assumed)", "EXPERIMENTAL_ENDPOINT": "Residual trypsin activity", "UNIT_OF_MEASURE": "%", "ENDPOINT_RESULT": 104.2}

Reading of Residual trypsin activity for CC[C@H](C)[C@@H]1NC(=O)[C@@H]2CCCN2C(=O)[C@@H]2CCCN2C(=O)[C@H]([C@@H](C)CC)NC(=O)[C@H](CO)NC(=O)[C@H](CCCCN)NC(=O)[C@H]([C@@H](C)O)NC(=O)[C@H](CCC(N)=O)NC(=O)[C@H](CCCNC(=N)N)NC(=O)CNC(=O)[C@@H](N)CSSC[C@@H](C(=O)N[C@@H](Cc2ccccc2)C(=O)O)NC1=O [BT54] (H-CGRQTKSIPPICF-OH; disulfide 1-12; C-terminus assumed) with bovine trypsin (Bos taurus): 101.0

So the reported Residual trypsin activity for CCCC[C@@H]1NC(=O)[C@H](CCCNC(=N)N)NC(=O)CNC(=O)[C@@H](N)CSSC[C@@H](C(=O)N[C@@H](Cc2ccccc2)C(=O)O)NC(=O)[C@H]([C@@H](C)CC)NC(=O)[C@@H]2CCCN2C(=O)[C@@H]2CCCN2C(=O)[C@H]([C@@H](C)CC)NC(=O)[C@H](CO)NC(=O)[C@H](CCCCN)NC(=O)[C@H]([C@@H](C)O)NC1=O [BT50] (H-CGR[Nle]TKSIPPICF-OH; disulfide 1-12; C-terminus assumed) , on bovine trypsin (Bos taurus), turned out to be 106.1

Field Residual trypsin activity (bovine trypsin (Bos taurus)), entry CC[C@H](C)[C@@H]1NC(=O)[C@@H]2CCCN2C(=O)[C@@H]2CCCN2C(=O)[C@H]([C@@H](C)CC)NC(=O)[C@H](CO)NC(=O)[C@H](CCCCN)NC(=O)[C@H]([C@@H](C)O)NC(=O)[C@H](CO)NC(=O)[C@H](CCCNC(=N)N)NC(=O)CNC(=O)[C@@H](N)CSSC[C@@H](C(=O)N[C@@H](Cc2ccccc2)C(=O)O)NC1=O [BT47] (H-CGRSTKSIPPICF-OH; disulfide 1-12; C-terminus assumed) : 103.0

Measured on bovine trypsin (Bos taurus), CC[C@H](C)[C@@H]1NC(=O)[C@@H]2CCCN2C(=O)[C@@H]2CCCN2C(=O)[C@H]([C@@H](C)CC)NC(=O)[C@H](CO)NC(=O)[C@H](CCCCN)NC(=O)[C@H]([C@@H](C)O)NC(=O)[C@H](C)NC(=O)[C@H](C)NC(=O)CNC(=O)[C@@H](N)CSSC[C@@H](C(=O)N[C@@H](Cc2ccccc2)C(=O)N2CCC[C@H]2C(=O)N[C@@H](CC(=O)O)C(=O)O)NC1=O [BT7] (H-CGAATKSIPPICFPD-OH; disulfide 1-12; N-terminus and C-terminus assumed) has a documented Residual trypsin activity of 103.5
